Origin of values: ChEMBL document CHEMBL1156168

tested on: MT2; assay: Cytotoxicity against human MT2 cells by MTT assay; format: cell-based; conditions: mt2
endpoint: CC50

Consider the worked cases shown below.
[[record]]
substancesmiles = "Clc1cccc(Cl)c1Cc1nnc(Nc2ccc(COCc3ccccn3)cc2)o1"
studytarget = "MT2"
endpoint = "CC50"
value = "> 100 µM"

[[record]]
substancesmiles = "O=C1Nc2ccc(Cl)cc2[C@@](C#CC2CC2)(C(F)(F)F)O1"
studytarget = "MT2"
endpoint = "CC50"
value = "> 0.1 µM"


Turning to the following compound.
[ask] Identify measured CC50 associated with "O=c1ncccn1SCCc1ccc(Nc2ncc(Cc3c(F)cccc3F)o2)cc1"
[reply] > 100 µM
